The reported numbers originate from patent US11999727B2.

Target: PRMT5 (Homo sapiens)
Construct: purchased Viva (custom protein)
Sequence (O14744 whole entry): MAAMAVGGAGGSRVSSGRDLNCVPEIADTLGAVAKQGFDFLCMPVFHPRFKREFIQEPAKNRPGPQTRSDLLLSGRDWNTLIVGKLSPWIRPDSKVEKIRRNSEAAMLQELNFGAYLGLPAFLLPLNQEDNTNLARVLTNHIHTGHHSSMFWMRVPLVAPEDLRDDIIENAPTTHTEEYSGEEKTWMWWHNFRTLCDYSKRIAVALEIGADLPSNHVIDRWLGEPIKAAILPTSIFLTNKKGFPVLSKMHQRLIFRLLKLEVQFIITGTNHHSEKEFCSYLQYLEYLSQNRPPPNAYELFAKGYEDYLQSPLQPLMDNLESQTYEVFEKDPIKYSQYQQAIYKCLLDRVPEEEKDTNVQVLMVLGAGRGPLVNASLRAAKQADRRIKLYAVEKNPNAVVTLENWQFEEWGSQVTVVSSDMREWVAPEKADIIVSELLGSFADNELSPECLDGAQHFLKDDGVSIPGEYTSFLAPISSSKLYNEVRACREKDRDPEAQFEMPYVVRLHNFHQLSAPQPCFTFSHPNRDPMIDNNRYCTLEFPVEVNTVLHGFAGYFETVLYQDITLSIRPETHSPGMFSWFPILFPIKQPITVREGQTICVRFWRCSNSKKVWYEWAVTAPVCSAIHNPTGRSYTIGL
Sequence (Q9BQA1 whole entry partner): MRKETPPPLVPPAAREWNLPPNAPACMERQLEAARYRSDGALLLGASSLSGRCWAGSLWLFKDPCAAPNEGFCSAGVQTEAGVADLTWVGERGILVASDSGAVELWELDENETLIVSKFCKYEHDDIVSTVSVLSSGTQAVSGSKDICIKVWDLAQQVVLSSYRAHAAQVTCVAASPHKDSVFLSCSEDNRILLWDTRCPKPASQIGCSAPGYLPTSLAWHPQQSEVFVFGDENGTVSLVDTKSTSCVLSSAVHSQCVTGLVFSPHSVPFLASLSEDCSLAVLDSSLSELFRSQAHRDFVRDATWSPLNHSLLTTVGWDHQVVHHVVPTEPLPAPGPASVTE
Test: PRMT5 biochemical IC50 assay with no cofactor
Details: PRMT5, no cofactor; read-out: No Cofactor/rel IC50
pIC50: −log10 of the molar value.
MEASUREMENT TYPE: pIC50

>>> result("C[C@H]1CC[C@H](c2ccc3c(c2)CNC3=O)N(C(=O)C(=O)Nc2cncc(C(N)=O)c2)C1 (single isomer, unassigned)")
"< 6.30"
>>> result("Cc1cc(NC(=O)C(=O)N2C[C@H](C)[C@H](CC(C)C)C[C@H]2c2ccc3scnc3c2)cnc1N (single isomer, unassigned)")
"> 7.30"
>>> result("Cc1nc2cc([C@@H]3CC[C@@H](C)CN3C(=O)C(=O)Nc3cnc(N)c(C)c3)ccc2s1 (single isomer, unassigned)")
"< 6.30"

[ask] I have this compound here, C[C@H]1CC[C@H](c2ccc3c(c2)CCCN3)N(C(=O)C(=O)Nc2cncc(C(N)=O)c2)C1 (single isomer, unassigned) , and I need its recorded pIC50.
[reply] < 6.30

[ask] Same question, CCc1cc(NC(=O)C(=O)N2C[C@H](C)CC[C@H]2c2cc3cn[nH]c3s2)cnc1N (single isomer, unassigned) this time
[reply] < 6.30

[ask] Same question, COc1ncc(NC(=O)C(=O)N2C[C@@H](C)CC[C@@H]2c2ccc3nn(C)cc3c2)cc1C(N)=O (single isomer, unassigned) this time
[reply] 6.30 to 7.30
